Numbers sourced from PubChem BioAssay AID2060622.

Test system: 242566-281-R-J2-PDC complex spheroid viability;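 also: spheroids exposed to compounds for 7 days before readout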
experiment.summary: Anticancer human tumor 242566-281-R-J2-PDC patient-derived pancreatic carcinoma cell line growth inhibition [CLK]; active = viability on the fitted dose curve at most 10% of control; inactive = the rest
assay.conditions: second compound 3.16 µM; first compound 0.316 µM
Use one of these outcomes when replying: Yes = active, No = inactive

### Prompt Test call for this molecule, please: O=C(c1cc(Cc2n[nH]c(=O)c3ccccc23)ccc1F)N1CCN(C(=O)C2CC2)CC1 + CN1CCN(c2cc(C(=O)Nc3cc4cc(-c5cnn(C)c5)ccc4cn3)ccn2)CC1
### Response Yes

### Prompt What outcome does the record of this test show for CC1COCCN1c1cc(C2(S(C)(=N)=O)CC2)nc(-c2ccnc3[nH]ccc23)n1 (stereo not given) + CN1CCN(c2cc(C(=O)Nc3cc4cc(-c5cnn(C)c5)ccc4cn3)ccn2)CC1 ?
### Response Yes

### Prompt Any idea what this test logged for C=CC(=O)N1CCN(c2nc(=O)n(-c3c(C)ccnc3C(C)C)c3nc(-c4c(O)cccc4F)c(F)cc23)C(C)C1 (stereo not given) + CNC(=O)c1ccc(Nc2nc(OC3CCCC3)c3c(-c4ccc5nc(C)oc5c4)c[nH]c3n2)c(OC)c1 ?
### Response No

### Prompt Outcome logged for CC1(C)CCC(CN2CCN(c3ccc(C(=O)NS(=O)(=O)c4ccc(NCC5CCOCC5)c([N+](=O)[O-])c4)c(Oc4cnc5[nH]ccc5c4)c3)CC2)=C(c2ccc(Cl)cc2)C1 + CNC(=O)c1ccc(Nc2nc(OC3CCCC3)c3c(-c4ccc5nc(C)oc5c4)c[nH]c3n2)c(OC)c1 in this assay:
### Response No

### Prompt Entry COc1cccc2c1C(=O)c1c(O)c3c(c(O)c1C2=O)CC(O)(C(=O)CO)CC3OC1CC(N)C(O)C(C)O1 (stereo not given) + CNC(=O)c1ccc(Nc2nc(OC3CCCC3)c3c(-c4ccc5nc(C)oc5c4)c[nH]c3n2)c(OC)c1 : call = ?
### Response Yes
